molecular target: human ADAMTS-5 (Homo sapiens (Human)); assay: hADAMTS-5 TBIS-1 cleavage assay, Protocol 3; type: biochemical; conditions: 90 min at 37° C., read-out: hADAMTS-5 potency IC50
Sequence (Q9UNA0 262-930): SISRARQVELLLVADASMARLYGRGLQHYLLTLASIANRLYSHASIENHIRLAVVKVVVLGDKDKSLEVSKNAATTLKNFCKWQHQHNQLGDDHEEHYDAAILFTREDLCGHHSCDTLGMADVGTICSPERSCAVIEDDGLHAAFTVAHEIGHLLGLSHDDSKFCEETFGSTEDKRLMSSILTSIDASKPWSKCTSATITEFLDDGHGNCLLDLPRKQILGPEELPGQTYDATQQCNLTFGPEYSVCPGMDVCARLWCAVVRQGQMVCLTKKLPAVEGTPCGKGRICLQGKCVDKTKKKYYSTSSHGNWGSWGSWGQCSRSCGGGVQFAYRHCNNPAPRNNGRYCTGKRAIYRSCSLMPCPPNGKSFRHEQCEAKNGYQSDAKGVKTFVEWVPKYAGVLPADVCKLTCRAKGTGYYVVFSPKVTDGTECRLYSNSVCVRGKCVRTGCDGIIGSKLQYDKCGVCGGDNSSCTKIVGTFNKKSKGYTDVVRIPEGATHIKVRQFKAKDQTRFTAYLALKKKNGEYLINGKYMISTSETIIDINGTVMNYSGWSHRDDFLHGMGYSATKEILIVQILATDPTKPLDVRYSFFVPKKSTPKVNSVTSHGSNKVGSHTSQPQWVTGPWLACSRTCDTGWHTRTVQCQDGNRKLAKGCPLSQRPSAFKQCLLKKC
Please provide measured IC50 for the entries that follow.

[[record]]
compound = "COc1cc(N2CCN(C(=O)[C@@H](C)C[C@@]3(C4CC4)NC(=O)NC3=O)C[C@@H]2C)cc(F)c1F [Cpd 29]"
subjectoftest = "human ADAMTS-5 (Homo sapiens (Human))"
reportedproperty = "IC50"
value = "25 to 50 nM"

[[record]]
compound = "COCC1(CC(C)C(=O)N2CCN(c3ccc(Cl)c(OC)c3)[C@@H](C)C2)NC(=O)NC1=O (mixture of isomers) [Cpd 47]"
subjectoftest = "human ADAMTS-5 (Homo sapiens (Human))"
reportedproperty = "IC50"
value = "25 to 50 nM"

[[record]]
compound = "COc1cc(N2CCN(C(=O)CC[C@@]3(C)NC(=O)NC3=O)C[C@@H]2C)ccc1Cl [Cpd 55]"
subjectoftest = "human ADAMTS-5 (Homo sapiens (Human))"
reportedproperty = "IC50"
value = "50 to 100 nM"


Hi team, please reply with IC50 for each item in this list.
1. COc1cc(N2CCN(C(=O)CCC3(C)NC(=O)NC3=O)CC2)ccc1F (stereo not shown) [Cpd 9]
2. COc1cccc(N2CCN(C(=O)CC[C@H]3NC(=O)NC3=O)CC2)c1C [Cpd 137]
3. COc1cc(N2CCN(C(=O)CCC3(C)NC(=O)NC3=O)CC2)c(C)cc1Cl (stereo not shown) [Cpd 34]
4. COc1cc(N2CCN(C(=O)[C@H](C)C[C@@]3(C4CC4)NC(=O)NC3=O)C[C@@H]2C)cc(F)c1F (stereo in doubt) [Cpd 134]
5. COc1cc(N2CCN(C(=O)[C@@H](C)C[C@@]3(C)NC(=O)NC3=O)C[C@@H]2C)cc(OC)c1Cl (stereo in doubt) [Cpd 44]
6. CC1(CCC(=O)N2CCN(c3ccccc3OC(F)(F)F)CC2)NC(=O)NC1=O (stereo not shown) [Cpd 4]

> 100 nM
> 100 nM
> 100 nM
> 100 nM
50 to 100 nM
> 100 nM

Could you please provide reported IC50 for COc1cc(N2CCN(C(=O)CC[C@@]3(C)NC(=O)NC3=O)CC2)cc(F)c1F [Cpd 20] ? Thanks!
> 100 nM

====

molecular target: UniProtKB O75173; experiment: hADAMTS-4 TBIS-1 cleavage assay, Protocol 2; type: biochemical
Sequence (O75173 213-837): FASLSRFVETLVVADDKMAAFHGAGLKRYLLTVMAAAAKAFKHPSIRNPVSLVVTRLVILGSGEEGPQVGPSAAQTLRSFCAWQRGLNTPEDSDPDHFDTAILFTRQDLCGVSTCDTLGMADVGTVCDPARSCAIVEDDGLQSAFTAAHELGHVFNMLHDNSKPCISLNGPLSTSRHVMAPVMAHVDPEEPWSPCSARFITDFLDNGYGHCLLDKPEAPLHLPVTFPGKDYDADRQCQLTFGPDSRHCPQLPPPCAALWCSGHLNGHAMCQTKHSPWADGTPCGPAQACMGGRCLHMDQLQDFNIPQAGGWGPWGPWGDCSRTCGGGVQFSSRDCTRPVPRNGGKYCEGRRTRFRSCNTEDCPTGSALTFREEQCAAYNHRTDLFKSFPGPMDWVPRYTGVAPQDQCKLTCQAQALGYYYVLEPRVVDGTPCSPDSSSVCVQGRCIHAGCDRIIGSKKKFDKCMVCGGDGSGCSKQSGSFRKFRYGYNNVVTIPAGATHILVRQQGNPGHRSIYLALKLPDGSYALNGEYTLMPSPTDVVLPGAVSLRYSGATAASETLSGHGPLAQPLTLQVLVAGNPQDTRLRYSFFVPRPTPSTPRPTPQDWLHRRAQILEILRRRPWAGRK
pIC50: −log10 of the molar value.
Would you mind telling me the reported pIC50 of each entry?

Worked cases, pIC50 given:
[[record]]
compound = "COc1cc(N2CCN(C(=O)CCC3(C4CC4)NC(=O)NC3=O)C[C@@H]2C)cc(F)c1F (some centres unmarked) [Cpd 21]"
reportedproperty = "pIC50"
value = "7.00 to 7.30"

[[record]]
compound = "COc1cc(N2CCN(C(=O)[C@@H](C)C[C@@]3(C4CC4)NC(=O)NC3=O)C[C@@H]2C)cc(F)c1F [Cpd 29]"
reportedproperty = "pIC50"
value = "7.30 to 7.60"

[[record]]
compound = "CC[C@]1(C[C@H](C)C(=O)N2CCN(c3cc(F)c(F)c(OC)c3)CC2)NC(=O)NC1=O [Cpd 57]"
reportedproperty = "pIC50"
value = "7.00 to 7.30"

[[record]]
compound = "COc1cc(N2CCN(C(=O)[C@@H](C)C[C@@]3(C)NC(=O)NC3=O)C[C@@H]2C)cc(F)c1F (mixture of isomers) [Cpd 42]"
reportedproperty = "pIC50"
value = "7.30 to 7.60"


Report pIC50 for each item below.
1. COc1cc(N2CCN(C(=O)[C@@H](C)C[C@@]3(C)NC(=O)NC3=O)C[C@@H]2C)cc(F)c1Cl (stereo in doubt) [Cpd 120]
2. COc1cc(N2CCN(C(=O)[C@@H](C)C[C@@]3(c4ccccn4)NC(=O)NC3=O)C[C@@H]2C)cc(F)c1F (stereo in doubt) [Cpd 49]
3. COc1cc(N2CCN(C(=O)[C@@H](C)C[C@@]3(C)NC(=O)NC3=O)CC2)cc(F)c1F (stereo in doubt) [Cpd 43]
4. COC[C@]1(C[C@H](C)C(=O)N2CCN(c3cc(F)c(F)c(OC)c3)CC2)NC(=O)NC1=O [Cpd 59]
5. COc1cc(N2CCN(C(=O)CC[C@@]3(C4CC4)NC(=O)NC3=O)C[C@@H]2C)cc(F)c1F [Cpd 37]
6. COc1cc(N2CCN(C(=O)CC[C@@]3(C)NC(=O)NC3=O)CC2)cc(C)c1Cl [Cpd 112]
7. COc1cc(F)cc(N2CCN(C(=O)CCC3(C4CC4)NC(=O)NC3=O)CC2)c1 (centres unmarked) [Cpd 15]

1. 7.00 to 7.30
2. 7.00 to 7.30
3. 7.30 to 7.60
4. 7.30 to 7.60
5. 7.30 to 7.60
6. 7.00 to 7.30
7. 7.00 to 7.30
